Tested on: FSK-4 cells
Assay: Assay (I): Glucose utilisation in a human epithelia cell line (FSK4 cells), D-(6-3H(N))-glucose
Assay type: cell-based
Conditions: 24 hours incubation, Hill equation, read-out: GlucosFSK4 EC50
Procedure: Assay (I): Glucose Utilisation in a Human Epithelia Cell Line (FSK4 cells) The ^3H-proton will first be released in the TCA cyclus and transported to the respiratory chain where it will be incorporated into water. […] The half maximal concentration (EC50) and maximal efficacy (Emax) are calculated using the Hill equation in GraphPad Prism 3.0 (GraphPad software, Inc.). […] From the percentage increase in glucose utilisation the linear slope is calculated using the Michaelis-Menten equation.
pEC50: −log10 of the molar value.
assay readout: pEC50

INSERT INTO results (compound, system, reported_value) VALUES
  ('CC(C)(C)c1cc(/C=C(\C#N)S(=O)(=O)c2ccccc2OC(F)(F)F)cc(C(C)(C)C)c1O [Example 40]', 'FSK-4 cells', 6.22),
  ('CC(C)(C)c1cc(/C=C(\C#N)S(=O)(=O)c2ccccn2)cc(C(C)(C)C)c1O [Example 3]', 'FSK-4 cells', 5.05),
  ('CC(C)(C)c1cc(/C=C(\C#N)S(=O)(=O)c2ccccc2C(=O)O)cc(C(C)(C)C)c1O [Example 42]', 'FSK-4 cells', 5.05),
  ('CC(C)(C)c1cc(/C=C(\C#N)S(=O)(=O)Cc2ccco2)cc(C(C)(C)C)c1O [Example 31]', 'FSK-4 cells', 5.70),
  ('CC1COCC(C)N1C(=O)c1ccc(S(=O)(=O)/C(C#N)=C/c2cc(C(C)(C)C)c(O)c(C(C)(C)C)c2)cc1 (stereo not shown) [Example 27]', 'FSK-4 cells', 5.46),
  ('CC(C)(C)c1cc(C=C(C#N)S(=O)(=O)c2cc(C(C)(C)C)c(O)c(C(C)(C)C)c2)cc(C(C)(C)C)c1O [Example 35]', 'FSK-4 cells', 5.48),
  ('CC(C)(C)c1cc(/C=C(\C#N)S(=O)(=O)c2cccs2)cc(C(C)(C)C)c1O [Example 23]', 'FSK-4 cells', 5.92);
